The measurements presented in this section are drawn from patent US20100260765A1.

tested-system: T1, soluble KDR Ig4-7 domain (human, UniProt P35968 328-764)
T1 construct: domain: Ig4-7 domain; also called b-KDRIg4-7-myc-his; Ig4-7 domain of KDR; not shown: myc-his tag of the pSecTag construct
T1 sequence (P35968 328-764): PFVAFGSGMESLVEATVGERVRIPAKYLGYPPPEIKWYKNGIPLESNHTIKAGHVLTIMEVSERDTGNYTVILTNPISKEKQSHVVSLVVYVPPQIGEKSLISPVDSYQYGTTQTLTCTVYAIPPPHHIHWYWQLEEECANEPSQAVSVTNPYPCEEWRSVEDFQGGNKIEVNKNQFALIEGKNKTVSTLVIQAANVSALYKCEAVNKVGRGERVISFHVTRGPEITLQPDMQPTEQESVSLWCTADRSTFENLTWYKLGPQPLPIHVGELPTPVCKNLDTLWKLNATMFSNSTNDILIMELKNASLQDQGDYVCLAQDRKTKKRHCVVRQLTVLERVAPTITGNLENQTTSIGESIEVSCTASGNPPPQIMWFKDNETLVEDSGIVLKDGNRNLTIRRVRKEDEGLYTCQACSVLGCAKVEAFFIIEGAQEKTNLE
experiment-summary: ELISA, KDR Ig4-7 coat (1:1 diln.), antibody 1 ug/mL
Reported ELISA reading is given for each of the following binders.
Returns: the value as a bare number; no unit string appended.

binder	numeric-result
33B1 (antibody, V domains shown, Fully human monoclonal antibody from a XenoMouse hybridoma (IgG2 or IgG4 strain), purified) VH: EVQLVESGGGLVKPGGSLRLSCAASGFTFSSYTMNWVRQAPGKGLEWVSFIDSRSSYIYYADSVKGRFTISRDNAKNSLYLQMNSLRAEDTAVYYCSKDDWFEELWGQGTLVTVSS VL: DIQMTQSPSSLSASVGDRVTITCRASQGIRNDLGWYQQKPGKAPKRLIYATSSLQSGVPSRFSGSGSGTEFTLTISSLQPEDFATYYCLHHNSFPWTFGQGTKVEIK	3.04
21H6 (antibody, V domains shown, Fully human monoclonal antibody from a XenoMouse hybridoma, purified) VH: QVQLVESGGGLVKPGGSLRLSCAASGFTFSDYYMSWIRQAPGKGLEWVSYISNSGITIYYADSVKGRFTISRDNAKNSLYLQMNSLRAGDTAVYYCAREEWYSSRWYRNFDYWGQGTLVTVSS VL: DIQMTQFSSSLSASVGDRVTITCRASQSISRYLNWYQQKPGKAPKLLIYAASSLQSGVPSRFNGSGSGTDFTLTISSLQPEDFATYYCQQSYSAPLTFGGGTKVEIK	0.087
32G7 (antibody, V domains shown, Fully human monoclonal antibody from a XenoMouse hybridoma (IgG2 or IgG4 strain), purified) VH: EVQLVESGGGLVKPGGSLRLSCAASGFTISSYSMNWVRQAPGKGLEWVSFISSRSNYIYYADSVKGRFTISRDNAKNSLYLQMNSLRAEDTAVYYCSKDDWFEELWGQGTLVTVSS VL: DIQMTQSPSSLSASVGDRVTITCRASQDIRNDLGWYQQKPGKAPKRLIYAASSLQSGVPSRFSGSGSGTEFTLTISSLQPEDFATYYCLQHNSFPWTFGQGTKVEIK	2.65

Read the next record carefully.
Problem: Item 33C3 (antibody, V domains shown, Fully human monoclonal antibody from a XenoMouse hybridoma (IgG2 or IgG4 strain), purified) VH: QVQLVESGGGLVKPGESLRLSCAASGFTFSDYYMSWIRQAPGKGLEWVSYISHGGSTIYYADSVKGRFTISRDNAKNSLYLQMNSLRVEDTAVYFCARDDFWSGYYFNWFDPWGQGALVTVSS VL: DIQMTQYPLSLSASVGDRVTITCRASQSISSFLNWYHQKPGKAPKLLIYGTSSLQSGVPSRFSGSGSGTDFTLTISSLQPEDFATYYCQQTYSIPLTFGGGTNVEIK : provide ELISA reading
Result: 0.094
